Each entry below carries its recorded solubility kinetic.
- testConditions: buffer; pH 7.4; 200.0 µM
Response body: numeric value in µg/mL, unit text excluded.

COCCNC(=S)N1CCN(Cc2ccc3c(c2)OCO3)CC1; 47
O=C(Nc1nc2ccccc2[nH]1)c1cccc(F)c1; 6.6
N#Cc1ccc(OCC(=O)N2CCc3ccccc32)cc1; 1.8
COC(=O)c1[nH]c2c(c1C)C(=O)CC(c1ccc(OC)c(OC)c1)C2 (stereo unspecified); 2.1

Lookup result for COc1cccc(N=Cc2nc(-c3ccccc3)oc2OC(C)=O)c1 ; measured solubility kinetic: 10.1

====

- testConditions: buffer; pH 7.4; 200.0 µM
Each entry below carries its recorded solubility kinetic.

Observe how each entry below is paired with its result.
COC(=O)Cn1c(=O)c(C)nc2ccccc21; > 34.8 µg/mL
CN(Cc1ccccc1)C1CCNCC1.Cl; > 41.6 µg/mL
CCC(=O)N(CCc1ccccc1)Cc1cc2cccc(C)c2[nH]c1=O; 2.3 µg/mL

Lookup result for CCOC(=O)c1cc2c(ccn2C)n1CC(=O)N(CC)CC ; measured solubility kinetic: > 45.8 µg/mL

Lookup result for COC(=O)c1cccc(NC(=O)CSCc2ccccc2)c1 ; measured solubility kinetic: 35.6 µg/mL

Lookup result for Cc1ccnc(NC(=O)c2ccc([N+](=O)[O-])s2)c1 ; measured solubility kinetic: 4 µg/mL

Lookup result for Cc1ccc(N2C(=O)Cc3ccccc3C2=O)cc1 ; measured solubility kinetic: > 37.7 µg/mL

Lookup result for CCN1CCCC1CNc1ccc(S(C)(=O)=O)cc1[N+](=O)[O-] (configuration not stated) ; measured solubility kinetic: > 49.1 µg/mL

Lookup result for CC1=C(C)C(OCCBr)N(c2cc(O)c(Cl)cc2F)C1=O (configuration not stated) ; measured solubility kinetic: > 56.8 µg/mL

Lookup result for CC1CCCN(C(=O)CNS(=O)(=O)c2cccs2)C1 (configuration not stated) ; measured solubility kinetic: > 45.4 µg/mL

Lookup result for O=C(Cn1c(C(=O)OCCO)cc2ccccc21)c1ccccc1 ; measured solubility kinetic: 6.8 µg/mL

Lookup result for Nc1ccc(C(=O)O)cc1[N+](=O)[O-] ; measured solubility kinetic: > 27.3 µg/mL

====

- testConditions: buffer; pH 7.4; 200.0 µM
Residues, ends and D or L forms follow the SMILES beside them. *: point of attachment. OBn = c1ccc(CO*)cc1
Each entry below carries its recorded solubility kinetic.

Observe how each entry below is paired with its result.
NC(=O)c1ccc[n+](CC(=O)c2ccc(F)cc2)c1.[Br-]; > 50.9 µg/mL
COc1ccc(-c2nc3n(c(=O)c2C#N)CCS3)cc1OC; 11.9 µg/mL
Cc1cccc(NC(=O)c2cc3ccccc3nc2C)c1; 29.3 µg/mL

Lookup result for COc1ccc(-n2c(=S)[nH]c3ccccc3c2=S)cc1 ; measured solubility kinetic: 1.4 µg/mL

Lookup result for COc1cccc2[nH]c(C(=O)NCC3CCCO3)cc12 (stereo unspecified) ; measured solubility kinetic: > 41.1 µg/mL

Lookup result for Cc1cc(Nc2cccc([N+](=O)[O-])c2)c2cccc(C)c2n1.Cl ; measured solubility kinetic: 5.5 µg/mL

Lookup result for CCc1nc2ccccc2c(C(=O)NCc2ccccc2)c1C ; measured solubility kinetic: 33.9 µg/mL

Lookup result for CC(=O)NCC(=O)N[C@@H](CC(=O)OCc1ccccc1)C(=O)OCc1ccccc1 (Ac-Gly-Asp(OBn)-OBn) ; measured solubility kinetic: > 61.9 µg/mL

Lookup result for Nc1c(C(=O)C2CC2)sc2nc3c(cc12)CCC3 ; measured solubility kinetic: 2.2 µg/mL

Lookup result for CC(N)C12CC3CC(CC(C3)C1)C2.Cl (stereo unspecified) ; measured solubility kinetic: > 32.4 µg/mL

Lookup result for COC(=O)COc1ccc(S(=O)(=O)N2CCCCCC2)cc1C ; measured solubility kinetic: 39.3 µg/mL

====

Each entry below carries its recorded solubility kinetic.
- testConditions: buffer; pH 7.4; 200.0 µM
Response body: numeric value in µg/mL, unit text excluded.

Observe how each entry below is paired with its result.
COc1ccc2c(c1)-c1nc(/N=C/c3ccc(O)cc3)sc1CC2; 34
O=C(NC(=S)NCCc1ccccc1)c1ccccc1F; 0.8
O=c1[nH]c2ccc(S(=O)(=O)N3CCN(c4ccc(F)cc4)CC3)cc2o1; 5.7

Lookup result for O=C(c1cc2cc(F)ccc2[nH]1)N1CCC(Cc2ccccc2)CC1 ; measured solubility kinetic: 1.3

Lookup result for CCCCNC(=O)N(C)c1nc2ccccc2s1 ; measured solubility kinetic: 28.8

Lookup result for Cc1cccc(-c2noc(CCCC(=O)NC3CCCCC3)n2)c1 ; measured solubility kinetic: 4.5

====

- testConditions: buffer; pH 7.4; 200.0 µM
measuredAttribute: solubility kinetic (µg/mL)
Response body: numeric value in µg/mL, unit text excluded.

NC(=S)c1c(Cl)cc(C(F)(F)F)cc1Cl; 40.6

Lookup result for COc1cc(C)nc(-c2csc(C)n2)n1 ; measured solubility kinetic: 28.6

Lookup result for Cc1cccc(OCC(=O)NCc2cc(C)nc3ccccc23)c1 ; measured solubility kinetic: 5

Lookup result for CSc1ccccc1C(=O)Nc1cccc([N+](=O)[O-])c1C ; measured solubility kinetic: 7.5

Lookup result for O=C(Nc1nccs1)C1CCN(S(=O)(=O)c2ccccc2)CC1 ; measured solubility kinetic: 43.7

Lookup result for O=S(=O)(NCCNc1nccc(C(F)(F)F)n1)c1ccccc1 ; measured solubility kinetic: 50.2

====

- testConditions: buffer; pH 7.4; 200.0 µM
Each entry below carries its recorded solubility kinetic.

Observe how each entry below is paired with its result.
O=Cc1c(N2CCSCC2)nc2ccccn2c1=O; > 41.3 µg/mL
CCOc1cc(C(F)(F)F)cnc1/C(N)=N/O; 36.9 µg/mL
Cc1cccc(C(=O)O/N=C(\N)c2ccc(Cl)cc2)c1; < 0.3 µg/mL
COc1cc(Br)c(CC(=O)NC2CC2)cc1OC; > 47.1 µg/mL
CC(=O)N(C)c1ccc(NC(=O)Nc2ccc(Cl)cc2)cc1; 45.2 µg/mL

Lookup result for C#CC[N+](CC)(CC)CC#Cc1ccccc1.[Br-] ; measured solubility kinetic: 37.8 µg/mL

Lookup result for CC(C)(C)NCC(O)c1cc(Cl)c(N)c(Cl)c1.Cl (stereo not given) ; measured solubility kinetic: 46.5 µg/mL

Lookup result for O=C(Cc1cccc2ccccc12)NCC(=O)Nc1ccccc1F ; measured solubility kinetic: 10.6 µg/mL

Lookup result for O=C1C(=O)N(Cc2cccs2)c2ccccc21 ; measured solubility kinetic: > 36.5 µg/mL

Lookup result for Cc1cc(C(F)(F)F)c2c(N)c(C(=O)NC3CC3)sc2n1 ; measured solubility kinetic: > 47.3 µg/mL

====

- testConditions: buffer; pH 7.4; 200.0 µM
yes (1) means recorded solubility kinetic is 9 µg/mL or above; no (0) means it is below 9 µg/mL.

Cc1ccc2c(c1)N(CC(=O)N1CCCCC1C)C(=O)CO2 (centres undefined); yes (1)
C=CCNC(=O)/C(C#N)=C/c1ccc2c(c1)OCCO2; no (0)
CC(C)(C)OC(=O)NC(CC(=O)OCc1ccccc1)C(=O)O (centres undefined); yes (1)

Is it the case that OC(CNCc1ccccc1F)COc1cccc2ccccc12 (centres undefined) has solubility kinetic reaching or exceeding 9 µg/mL?
yes (1)

Is it the case that OC(CNCc1ccccc1Cl)C(F)(F)F (centres undefined) has solubility kinetic reaching or exceeding 9 µg/mL?
yes (1)

Is it the case that CN(C)CCNS(=O)(=O)c1ccc2c3c(cccc13)C(=O)N2 has solubility kinetic reaching or exceeding 9 µg/mL?
yes (1)

Is it the case that CC1(C)C(=O)Nc2ccccc2N1C(=O)COC(=O)c1cccnc1Cl has solubility kinetic reaching or exceeding 9 µg/mL?
yes (1)

Is it the case that Cc1ccc(CNC(=O)CSc2nc3ccccc3[nH]2)cc1 has solubility kinetic reaching or exceeding 9 µg/mL?
yes (1)

Is it the case that COc1cccc(NC(=O)NCc2ccccc2Cl)c1 has solubility kinetic reaching or exceeding 9 µg/mL?
no (0)

Is it the case that O=C(CCCSc1ccc(Cl)cc1)Nc1ccccc1O has solubility kinetic reaching or exceeding 9 µg/mL?
no (0)

Is it the case that Cc1nc([N+](=O)[O-])c(SCC(N)=O)n1Cc1ccccc1 has solubility kinetic reaching or exceeding 9 µg/mL?
yes (1)

====

- testConditions: buffer; pH 7.4; 200.0 µM
Each entry below carries its recorded solubility kinetic.
Response body: numeric value in mg/mL, unit text excluded.

O=C(COC(=O)CCC(=O)c1ccc(Cl)cc1)NCCc1ccccc1; 0.0057
O=C(CSc1ccccc1F)NCCN1C(=O)CSC1=O; 0.0481

Lookup result for COc1ccc2c(c1)C(=O)N(c1ccc(C)cc1C)C(=O)C2(C)C ; measured solubility kinetic: 0.0053

Lookup result for CCc1cc2c(=O)n(CC(=O)NC3CCCCC3)cnc2s1 ; measured solubility kinetic: 0.0205

Lookup result for Cn1ccnc1SCC(=O)c1c(N)n(C)c(=O)n(C)c1=O ; measured solubility kinetic: 0.0415

// data source = PubChem BioAssay AID1996
